- System: wild-type p53-expressing (H460) cell line
- Assay Name: CTG cell proliferation assay, H460 cell line
- Type: cell-based
- Condition Description: Homo sapiens, NCI-H460, H460; monotherapy; second assay; read-out: IC50
Parameter Measured: IC50 (nM)

Compound: C[C@H](OP(=O)(N1CC1)N1CC1)c1ccc([N+](=O)[O-])c(Oc2cccc(C(=O)N(C)C)c2)c1 [AST-3424]
Result Value: 0.24

* * *

- System: wild-type p53-expressing (H460) cell line
- Assay Name: CTG cell proliferation assay, H460 cell line
- Type: cell-based
- Condition Description: Homo sapiens, NCI-H460, H460; with 0.15 μM ceralasertib; first assay; read-out: IC50

Compound String: C[C@H](OP(=O)(N1CC1)N1CC1)c1ccc([N+](=O)[O-])c(Oc2cccc(C(=O)N(C)C)c2)c1
IC50 [nM]: 0.06

* * *

- Tested on: p53-deficient (HT29) cell line
- Assay Name: CTG cell proliferation assay, HT29 cell line
- Type: cell-based
- Condition Description: Homo sapiens, HT-29, HT29; with 2 μM ceralasertib; second assay; read-out: IC50
pIC50: −log10 of the molar value.
Parameter Measured: pIC50

Compound String: C[C@H](OP(=O)(N1CC1)N1CC1)c1ccc([N+](=O)[O-])c(Oc2cccc(C(=O)N(C)C)c2)c1
Parameter Measured: pIC50
Result Value: 8.91

* * *

- Tested on: H460 cell line
- Assay Name: H460 cell line proliferation inhibition assay under normoxia and hypoxia (CTG)
- Type: cell-based
- Condition Description: Homo sapiens, NCI-H460, H460; with 2 μM ceralasertib; normoxia
pIC50: −log10 of the molar value.

Compound String: Cn1c(COP(=O)(NCCBr)NCCBr)cnc1[N+](=O)[O-]
pIC50: 4.46
